Recorded values, source patent US8637510B2.

biological target: human alpha 7-wt nAChR (Homo sapiens, UniProt P36544); construct: expressed in transfected cells; assay: Ca2+ flux imaging (FDSS) (Protocol B); type: cell-based; conditions: potentiation of 100 μM choline; compounds 0.01 μM to 30 μM; read-out: a7-PAM-G_[33]_pEC50 pEC50 (converted)
Sequence (P36544 23-502): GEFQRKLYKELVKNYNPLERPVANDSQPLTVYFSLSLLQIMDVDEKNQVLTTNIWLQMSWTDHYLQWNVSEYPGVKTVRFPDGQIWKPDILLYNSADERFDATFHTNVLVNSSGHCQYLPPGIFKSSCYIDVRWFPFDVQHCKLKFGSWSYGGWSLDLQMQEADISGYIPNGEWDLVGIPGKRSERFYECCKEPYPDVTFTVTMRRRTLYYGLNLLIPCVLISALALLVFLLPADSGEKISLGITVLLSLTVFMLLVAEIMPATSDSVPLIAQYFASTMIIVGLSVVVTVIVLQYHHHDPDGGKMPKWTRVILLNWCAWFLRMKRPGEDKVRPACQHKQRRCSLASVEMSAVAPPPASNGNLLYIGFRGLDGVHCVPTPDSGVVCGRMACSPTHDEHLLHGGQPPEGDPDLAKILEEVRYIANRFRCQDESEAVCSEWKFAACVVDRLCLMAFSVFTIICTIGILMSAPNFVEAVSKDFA
measured_endpoint: EC50 (nM)

{"compound": "Cc1cc(CC(=O)NCc2nc(N3C[C@@H](C)O[C@@H](C)C3)sc2-c2cc(C)nc(C)c2)on1 [Compound 167]", "units_symbol": "nM", "EC50": 1230}
{"compound": "Cc1cc(-c2sc(N3CCOC(C(F)(F)F)C3)nc2CNC(=O)C(C)C)cc(C)n1 (stereo not shown) [Compound 194]", "units_symbol": "nM", "EC50": 55}
{"compound": "Cc1cc(C(=O)NCc2nc(N3C[C@@H](C)O[C@@H](C)C3)sc2-c2cc(C)nc(C)c2)on1 [Compound 4]", "units_symbol": "nM", "EC50": 1410}

P. Cc1cc(-c2sc(N3CCOC(C(F)(F)F)C3)nc2CNC(=O)c2ccc(F)cc2C)cc(C)n1 (stereo not shown) [Compound 193]
Q. Cc1cc(-c2sc(N3CCOC(C)(C)C3)nc2CNC(=O)c2cc(C)on2)cc(C)n1 [Compound 181]
R. Cc1cc(-c2sc(N3CCOC(C)C3)nc2CNC(=O)c2conc2C)cc(C)n1 (single isomer, unassigned) [Compound 69]
S. Cc1cc(-c2sc(N3CC4CCC(C3)O4)nc2CNC(=O)c2conc2C)cc(C)n1 [Compound 211]
Arrange the 4 compounds by rising EC50, starting with the smallest. Order the labels as requested and list them. P, R, Q, S

* * *

target: human alpha 7-wt nAChR (Homo sapiens, UniProt P36544); construct: expressed in transfected cells; experiment: Ca2+ flux imaging (FDSS) (Protocol B); assay type: cell-based; details: potentiation of 100 μM choline; compounds 0.01 μM to 30 μM; read-out: a7-PAM-G_[33]_pEC50 pEC50 (converted)
measured_endpoint: EC50 (nM)

{"compound": "Cc1cc(-c2sc(N3CCOC[C@@H]3C)nc2CNC(=O)CC(C)C)cc(C)n1", "EC50 [nM]": 1510}

A. Cc1cc(-c2sc(N3CCOC(C)C3)nc2CNC(=O)c2cc(C)on2)cc(C)n1 (single isomer, unassigned) [Compound 79]
B. Cc1cc(-c2sc(N3C[C@@H](C)O[C@@H](C)C3)nc2CNC(=O)c2cccnc2C)cc(C)n1
Lab note: record which item had the higher EC50, A or B . Give the label of your selection. A

* * *

molecular target: human alpha 7-wt nAChR (Homo sapiens, UniProt P36544); construct: expressed in transfected cells; assay: Ca2+ flux imaging (FDSS) (Protocol B); assay type: cell-based; conditions: efficacy of 100 μM choline defined as 100% in the absence of a PAM; read-out: a7-PAM-G_[33]_Eff_Curve_FI % Efficacy
measured_endpoint: Emax (%)

Worked examples follow.
{"cpd_smiles": "Cc1cc(-c2sc(N3C[C@@H](C)O[C@@H](C)C3)nc2CNC(=O)c2cccc(Cl)c2Cl)cc(C)n1", "units_symbol": "%", "Emax": 631}
{"cpd_smiles": "Cc1cc(-c2sc(N3C[C@@H](C)O[C@@H](C)C3)nc2CNC(=O)c2oc(C)cc2C)cc(C)n1", "units_symbol": "%", "Emax": 425}
{"cpd_smiles": "Cc1cc(F)ccc1C(=O)NCc1nc(N2CCOCC2)sc1-c1ccncc1", "units_symbol": "%", "Emax": 730}

P. Cc1cc(-c2sc(N3C[C@@H](C)O[C@@H](C)C3)nc2CNC(=O)c2ccc(Cl)cc2Cl)cc(C)n1
Q. COCC(=O)NCc1nc(N2C[C@@H](C)O[C@@H](C)C2)sc1-c1cc(C)nc(C)c1
Smaller Emax value? Options are P and Q Answer = label. Q

I. Cc1cc(-c2sc(N3CCOC[C@@H]3C)nc2CNC(=O)c2ccc(F)cc2C)cc(C)n1
II. Cc1cc(-c2sc(N3C[C@@H](C)O[C@@H](C)C3)nc2CNC(=O)c2cn(C)nc2C)cc(C)n1
III. Cc1cc(-c2sc(N3CC4CCC(C3)O4)nc2CNC(=O)c2conc2C)cc(C)n1
IV. COc1cc(-c2sc(N3C[C@@H](C)O[C@@H](C)C3)nc2CNC(=O)C2CCC2)cc(C)n1
Could you please sort these 4 entries by Emax from high to low? Lab note: record answer as labels in requested order. I, II, IV, III
(I: 974%, II: 671%, IV: 443%, III: 246%)
